Exercise: state measured protein stability index for each of the variants provided.
B1: ZNF207 (parent)
chain: FPSAGQAQAAVQGPVGTDFKPLNS

- Variants of: B1
- experiment summary: protein stability index of a GFP-peptide fusion (GPS, HEK-293T) (PSI 1-6); higher = more stable;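 note: lentivirally expressed fusions sorted by FACS into six bins by GFP to DsRed ratio, PSI derived from sequencing read proportions per bin multiplied by bin number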
- cond: c terminus: a fixed tail appended
Lab note: record the figure alone, no unit after it.

protein stability index in this record for FWSAGQAQAAVQGPVGTDFKPLNS [P2W] : 3.65

protein stability index in this record for FPSAGQAQAAVQGPVGTDFKILNS [P21I] : 2.87

protein stability index in this record for FPSAGQAQAAVQGNVGTDFKPLNS [P14N] : 3.68

protein stability index in this record for FPSAFQAQAAVQGPVGTDFKPLNS [G5F] : 1.51

protein stability index in this record for FPSAGQAQAAVQGPIGTDFKPLNS [V15I] : 3.84

protein stability index in this record for FPSAGQAQAAVNGPVGTDFKPLNS [Q12N] : 3.41

protein stability index in this record for FPSAGQAQAAVQGPVDTDFKPLNS [G16D] : 3.75

protein stability index in this record for FPSAGQAQARVQGPVGTDFKPLNS [A10R] : 3.05

protein stability index in this record for FPSAGQAQSAVQGPVGTDFKPLNS [A9S] : 3.1

protein stability index in this record for FGSAGQAQAAVQGPVGTDFKPLNS [P2G] : 4.14

protein stability index in this record for FPSAGQAQAAVQGPVGTDFKPCNS [L22C] : 3.35

protein stability index in this record for FPSAGQAQAAVVGPVGTDFKPLNS [Q12V] : 3.36

protein stability index in this record for FPSAGQAQAAVQGPVGTDFKPLNR [S24R] : 3.15

protein stability index in this record for FPSAGQAQAAVQGPVGLDFKPLNS [T17L] : 2.84

protein stability index in this record for FPSAGQAQAAVQGPVGTDFKPLFS [N23F] : 2.41

protein stability index in this record for FPSAGQAQAAVQTPVGTDFKPLNS [G13T] : 3.52

protein stability index in this record for FPSAGQAQAAVQGPVGTDFKQLNS [P21Q] : 3.88

protein stability index in this record for FPSAGQAQAAVQGPVFTDFKPLNS [G16F] : 3.17

protein stability index in this record for FPSAGQAQAAVQGPVGKDFKPLNS [T17K] : 3.27

protein stability index in this record for FPSAGQAQAAVQGPVGTHFKPLNS [D18H] : 2.74

protein stability index in this record for FPSAGQAQAAVQGPVGTDQKPLNS [F19Q] : 3.97

protein stability index in this record for FPSAGQAQAAVQGPFGTDFKPLNS [V15F] : 2.73

protein stability index in this record for FPSAGQAQAAVQGPVGTDFWPLNS [K20W] : 2.59

protein stability index in this record for FPSAGQAQAAVQGPTGTDFKPLNS [V15T] : 3.7

protein stability index in this record for FPSAGQAQAAVMGPVGTDFKPLNS [Q12M] : 2.83

protein stability index in this record for FPSRGQAQAAVQGPVGTDFKPLNS [A4R] : 3.87

protein stability index in this record for FPSAGQAQAAVQGPVGTVFKPLNS [D18V] : 2.61

protein stability index in this record for FPSNGQAQAAVQGPVGTDFKPLNS [A4N] : 4.08

protein stability index in this record for FPSAGQAAAAVQGPVGTDFKPLNS [Q8A] : 4.04

protein stability index in this record for FPSAGQAQAASQGPVGTDFKPLNS [V11S] : 4.27

protein stability index in this record for FPSAGQAQAAVQGPDGTDFKPLNS [V15D] : 3.49

protein stability index in this record for FPSAGQAQAAVQGPVGTDFKPANS [L22A] : 3.67

protein stability index in this record for FPSAGQAQAAVQGPVGTYFKPLNS [D18Y] : 2.36

protein stability index in this record for FPSAGQAQAAVQGPVGTFFKPLNS [D18F] : 2.34

protein stability index in this record for FPSAGQANAAVQGPVGTDFKPLNS [Q8N] : 3.57

protein stability index in this record for FPSAGQAQAAVQGPVGTDFKPLHS [N23H] : 3.44

protein stability index in this record for FPIAGQAQAAVQGPVGTDFKPLNS [S3I] : 4.35

protein stability index in this record for FPSAGQAQWAVQGPVGTDFKPLNS [A9W] : 2.45

protein stability index in this record for FPSAGQHQAAVQGPVGTDFKPLNS [A7H] : 3.55

protein stability index in this record for FPCAGQAQAAVQGPVGTDFKPLNS [S3C] : 2.61

protein stability index in this record for FPSAVQAQAAVQGPVGTDFKPLNS [G5V] : 3.96

protein stability index in this record for FPSAGQAQAAVQCPVGTDFKPLNS [G13C] : 3.4

protein stability index in this record for FPNAGQAQAAVQGPVGTDFKPLNS [S3N] : 3.08

protein stability index in this record for FPSAGQAQAAVPGPVGTDFKPLNS [Q12P] : 3.88

protein stability index in this record for FPSAGQAQAAVQGPVGTDFMPLNS [K20M] : 3.33

protein stability index in this record for FPSAGQAQAAVQVPVGTDFKPLNS [G13V] : 3.23

protein stability index in this record for FPSAGQAQAAVQGPVGTDFKPLNL [S24L] : 3.12

protein stability index in this record for FPSAGQAQANVQGPVGTDFKPLNS [A10N] : 3.13

protein stability index in this record for FPSAGQAQAAVQGPAGTDFKPLNS [V15A] : 3.62

protein stability index in this record for FPSAGQAQAAVQGPVGTDFKPLWS [N23W] : 2.01

protein stability index in this record for FPSAGKAQAAVQGPVGTDFKPLNS [Q6K] : 2.76

protein stability index in this record for FPSAGQAQAAVQGPVGTGFKPLNS [D18G] : 2.8

protein stability index in this record for FPSAGQWQAAVQGPVGTDFKPLNS [A7W] : 2.44

protein stability index in this record for FPSAGQAQAAVQGPVGTDFKPGNS [L22G] : 3.25

protein stability index in this record for GPSAGQAQAAVQGPVGTDFKPLNS [F1G] : 4.88

protein stability index in this record for FPSAGQAQAAVQHPVGTDFKPLNS [G13H] : 3.37

protein stability index in this record for FPSAGQAQAAVQGPVGTDFKPRNS [L22R] : 3.89

protein stability index in this record for FPSAGQAQAAVQGPVNTDFKPLNS [G16N] : 3.65

protein stability index in this record for FPSAGDAQAAVQGPVGTDFKPLNS [Q6D] : 4.37

protein stability index in this record for FPSKGQAQAAVQGPVGTDFKPLNS [A4K] : 3.71

protein stability index in this record for FPSAGQAQAAVQKPVGTDFKPLNS [G13K] : 3.76

protein stability index in this record for FPSAGQAQAAVQGPVATDFKPLNS [G16A] : 3.13

protein stability index in this record for FPSAGQAQAAVQGPVGTDFKPNNS [L22N] : 4.33

protein stability index in this record for FPSIGQAQAAVQGPVGTDFKPLNS [A4I] : 4.41

protein stability index in this record for FPSADQAQAAVQGPVGTDFKPLNS [G5D] : 4.67

protein stability index in this record for FPSAGQAQAAVQGPVGTLFKPLNS [D18L] : 2.32

protein stability index in this record for FPSAGPAQAAVQGPVGTDFKPLNS [Q6P] : 4.23

protein stability index in this record for FPSAGQAQAAWQGPVGTDFKPLNS [V11W] : 2.38

protein stability index in this record for FPSWGQAQAAVQGPVGTDFKPLNS [A4W] : 2.62

protein stability index in this record for FPSAGHAQAAVQGPVGTDFKPLNS [Q6H] : 3.58

protein stability index in this record for FPSAGQAQQAVQGPVGTDFKPLNS [A9Q] : 4.06

protein stability index in this record for FPSAGLAQAAVQGPVGTDFKPLNS [Q6L] : 2.81

protein stability index in this record for FPKAGQAQAAVQGPVGTDFKPLNS [S3K] : 3.17

protein stability index in this record for FPSAGQAQAAVQGPVITDFKPLNS [G16I] : 3.27

protein stability index in this record for FPAAGQAQAAVQGPVGTDFKPLNS [S3A] : 3.17

protein stability index in this record for FPSAGQAQAAVKGPVGTDFKPLNS [Q12K] : 3.38

protein stability index in this record for FFSAGQAQAAVQGPVGTDFKPLNS [P2F] : 3.33

protein stability index in this record for FPSAGQAQAAVQGPVGTDFKWLNS [P21W] : 2.67

protein stability index in this record for FPSAGQAQAAVQGPVGPDFKPLNS [T17P] : 3.3

protein stability index in this record for FPSAGQAQAAVQAPVGTDFKPLNS [G13A] : 3.26

protein stability index in this record for FPSAGQAQAAVQGPVGTDFKPVNS [L22V] : 3.86

protein stability index in this record for FPSAGQAQADVQGPVGTDFKPLNS [A10D] : 3.69

protein stability index in this record for FPSAGQAQAAVQFPVGTDFKPLNS [G13F] : 2.9

protein stability index in this record for FPSAGQAQNAVQGPVGTDFKPLNS [A9N] : 3.83

protein stability index in this record for FPSAGQCQAAVQGPVGTDFKPLNS [A7C] : 2.47

protein stability index in this record for FPSAGQAQAAVQGPVGTPFKPLNS [D18P] : 3.11

protein stability index in this record for FPSAGQAQAAVSGPVGTDFKPLNS [Q12S] : 3.36

protein stability index in this record for FPSAGFAQAAVQGPVGTDFKPLNS [Q6F] : 2.5

protein stability index in this record for FPSAGQFQAAVQGPVGTDFKPLNS [A7F] : 2.17

protein stability index in this record for FPSAGQAQAAVQGGVGTDFKPLNS [P14G] : 3.54

protein stability index in this record for FPSAGQAQAAVQGPVGTDFHPLNS [K20H] : 3.49
